This collection of values is drawn from PubChem BioAssay (NCI).

# measurementDescription: NCI Yeast Anticancer Drug Screen. Data for the cln2 rad14 strain (AID 165);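 further: 0% = growth equal to vehicle treated cultures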
# runConditions: S. cerevisiae cln2 rad14 strain, at 50.0 µM, active compounds read high
The panel holds about 79,000 compounds, 15% with a hit somewhere; the sample as a whole holds those more often.
Kind request: treat 10% as inclusive, so growth inhibition at 10% or higher is 1.0, anything lower is 0.0.

* CCOC(=O)CSc1nnc(N)s1 | 0.0
* [N-]=[N+]=Nc1ccccc1Oc1ccccc1 | 1.0
* c1cc2c3c(c1)CCC3CCC2 (stereo not drawn) | 1.0
* O=C1OC2C(O)COC2(O)C1(O)Cc1c[nH]c2ccccc12 (stereo not drawn) | 0.0
* O=NNc1ccc(Sc2ccc(NN=O)nc2)cc1 | 1.0
* O=[N+]([O-])c1ccc(O)c(O)c1 | 1.0
* CC1=C2C(=CC(C)(CO)C2O)C(O)C(C)(O)C12CC2 (stereo not drawn) | 0.0
* N#Cc1ccc(Br)cc1 | 0.0
